tested on: NCI-H460 lung; test: NCI-60 one-dose screen, 48 h; details: 10 µM unless noted
Compounds without any hit were thinned out: in the full panel of roughly 83,000, 20% have a hit. Active and inactive are the calls of the source. How the source made its calls: active means growth percent below 10; inactive means the rest.
Possible outcomes: active, inactive

COMPOUND: CCN(CC)c1ccc(/C=N/NC(=O)c2ccc(NS(C)(=O)=O)cc2)cc1
CATEGORY_LABEL: active

COMPOUND: CNCCN(C)c1ccc(Nc2cc(NC3CC3)n3ncc(C#N)c3n2)cc1NC(C)=O
CATEGORY_LABEL: active

COMPOUND: COc1ccc2[nH]cc(-c3nn4cc(-c5ccncc5)nc4s3)c2c1
CATEGORY_LABEL: inactive

COMPOUND: NC1CC2(CCN(c3cnc(C(=O)Nc4cc(F)cc5cccnc45)cn3)CC2)C1
CATEGORY_LABEL: inactive

COMPOUND: O=C(Nc1cccc(C(F)(F)F)c1)N1CCN(c2cc(-c3cn(-c4ccccc4)nc3-c3cccc(O)c3)ccn2)CC1
CATEGORY_LABEL: inactive

COMPOUND: CC1(C)CC[C@]23CC[C@]4(C)[C@H](CC[C@@H]5[C@@]6(C)CC[C@H](NCO)C(C)(C)[C@@H]6CC[C@]54C)[C@H]2[C@H]1OC3
CATEGORY_LABEL: active

COMPOUND: Cc1[nH]c(C(=O)Nc2ccccc2OCc2cccc(C(=O)NC3CCNC3)c2)c(Cl)c1Cl (centres undefined)
CATEGORY_LABEL: active

COMPOUND: COc1cc2c3c(cc4c5c(ccc4c3c1OC)OCO5)N(CCN(C)C)C2=O
CATEGORY_LABEL: active

COMPOUND: CCOC(=O)c1c(NC(=O)c2ccc(C(F)(F)F)cc2)sc2c3c(ccc12)OCN(C)C3
CATEGORY_LABEL: active

---

tested on: SK-MEL-28 melanoma; test: NCI-60 one-dose screen, 48 h (100 = growth as untreated, 0 = no growth, -100 = all killed); conditions: 10 µM unless noted
This is part of a sample that, as a whole, favours compounds with a hit. Of some 83,000 tested, about 20% had one in any assay.

STRUCTURE_STRING: CC[C@]12C=CCN3CC[C@@]4(c5ccc(OC)cc5N(C)[C@H]4[C@@](O)(C(=O)OC)[C@@H]1OC(=O)CCN1CCc4ccccc4C1)[C@@H]32
SYSTEM_UNDER_TEST: SK-MEL-28 melanoma
growth (%): 95
--
STRUCTURE_STRING: Clc1ccc2[nH]cc(-c3cncn3CCc3ccc4c(c3)OCO4)c2c1
SYSTEM_UNDER_TEST: SK-MEL-28 melanoma
growth (%): 93.5
--
STRUCTURE_STRING: O=C1[C@H]2Cc3c([nH]c4ccccc34)[C@H](c3ccc(Br)cc3)N2C(=O)CN1C1CCN(CC2CCCCC2)CC1
SYSTEM_UNDER_TEST: SK-MEL-28 melanoma
growth (%): 97.6
--
STRUCTURE_STRING: C#C[C@]1(O)CC[C@H]2[C@@H]3CC=C4c5sc(N(C)c6ccccc6)nc5CC[C@]4(C)[C@H]3CC[C@@]21C
SYSTEM_UNDER_TEST: SK-MEL-28 melanoma
growth (%): 76.9

---

test system: M14 melanoma; experiment: NCI-60 one-dose screen, 48 h (100 = growth as untreated, 0 = no growth, -100 = all killed); settings: 10 µM unless noted
About 83,000 compounds went through this panel and 20% of them were active in at least one assay; those are over-represented in the sample as a whole.
Field 'label' (enum: Yes / No). Set to Yes when growth is strictly under 30%; else No.

STRUCTURE_STRING: COc1cccc(N2CCN(C3=C(Cl)C(=O)c4ncccc4C3=O)CC2)c1
CATEGORY_LABEL: No

STRUCTURE_STRING: CC1=C(C)C(=O)C(Nc2ccc(C)c(C)c2)=C(Br)C1=O
CATEGORY_LABEL: No

STRUCTURE_STRING: Cc1ccc2c(n1)C(=O)C(Cl)=C(Nc1ccc(C(F)(F)F)cc1)C2=O
CATEGORY_LABEL: Yes

STRUCTURE_STRING: CC(=O)/C(N=Nc1ccc2oc(=O)ccc2c1)=C(\C)O
CATEGORY_LABEL: No

STRUCTURE_STRING: CCNCCOc1ccc(/C(=C(/CC)c2ccc(Cl)cc2)c2ccc(OCCCN(C)C)cc2)cc1
CATEGORY_LABEL: Yes

STRUCTURE_STRING: NC(=O)n1c(=O)n(-c2cccc(C(F)(F)F)c2)c(=O)c2cc(-c3ccc(F)cc3F)ccc21
CATEGORY_LABEL: Yes

STRUCTURE_STRING: O=c1c2ccccc2cc2n1CCN=C2c1ccccc1
CATEGORY_LABEL: No

STRUCTURE_STRING: O=C(CCCCCCN1CC(=O)N2[C@@H](c3cccs3)c3[nH]c4ccccc4c3C[C@H]2C1=O)NO
CATEGORY_LABEL: No

STRUCTURE_STRING: CC(C)(O)c1cncc(-c2ccc3ncc(C#N)c(N4CCc5cc(F)c(Cl)cc54)c3c2)c1
CATEGORY_LABEL: Yes

STRUCTURE_STRING: C#CCn1cc(/C=N/Nc2nc(-c3ccc(Br)cc3)cs2)c2ccccc21
CATEGORY_LABEL: No

---

test system: NCI-H226 lung; experiment: NCI-60 one-dose screen, 48 h (100 = growth as untreated, 0 = no growth, -100 = all killed); conditions: 10 µM unless noted
The panel holds about 83,000 compounds, 20% with a hit somewhere; the sample as a whole holds those more often.
ASSAY_METRIC: growth (%)

COMPOUND: C/C(CC1(O)C(=O)Nc2ccccc21)=N\O (stereo unspecified)
VALUE_OBSERVED: 98

COMPOUND: CN(C)c1cccc2c(S(=O)(=O)Nc3cccc(-c4csc(NC(=O)CCCCCN5CCN(CCO)CC5)n4)c3)cccc12
VALUE_OBSERVED: 91.2

COMPOUND: COc1ccc(-c2c(C(N)=O)c(N)n(Cc3nc4ccccc4[nH]3)c(=O)c2C#N)c(OC)c1
VALUE_OBSERVED: 94.5

COMPOUND: COc1ccc(-c2nc(C#N)c(N3CCC(S(=O)(=O)N4CCOCC4)CC3)o2)cc1
VALUE_OBSERVED: 93.9

COMPOUND: CS(=O)(=O)c1ccc(/C(=N/N=C(N)N)c2ccc(F)cc2)cc1
VALUE_OBSERVED: 91

COMPOUND: Cc1cc(=O)[nH]c(O)c1C#N
VALUE_OBSERVED: 101

---

system: NCI/ADR-RES ovarian; assay: NCI-60 one-dose screen, 48 h (100 = growth as untreated, 0 = no growth, -100 = all killed); conditions: 10 µM unless noted
The panel holds about 83,000 compounds, 20% with a hit somewhere; the sample as a whole holds those more often.

STRUCTURE_STRING: CCCCc1nc2c(N)nc3ccccc3c2n1Cc1ccc(OC)cc1
growth [%]: 59.2
--
STRUCTURE_STRING: C#CCOc1ccccc1/C=N/Nc1nc(-c2ccc(Cl)cc2)cs1
growth [%]: 94.2
--
STRUCTURE_STRING: O=C(COc1ccc(/C=C2\C(=O)Nc3ccc(F)cc32)cc1)Nc1ccccc1
growth [%]: 101
--
STRUCTURE_STRING: CCN(CC)c1ccc(/C=N/NC(=O)c2ccc(NS(C)(=O)=O)cc2)cc1
growth [%]: 58.3
--
STRUCTURE_STRING: Cc1ccc(S(=O)(=O)NCCCNc2nc(Nc3ccc(N4CCN(C)CC4)cc3)nc3ccsc23)cc1
growth [%]: 70.4
--
STRUCTURE_STRING: CCc1cc(OC(=O)N2CCN(CCC(C)(COC(C)(C)C)COC(C)(C)C)CC2)ccc1Nc1cc(-c2ccc(-n3cccn3)cc2)[nH]n1
growth [%]: 74.5
--
STRUCTURE_STRING: C#Cc1nc(/C=C/C(=O)NO)cs1
growth [%]: -6.26
--
STRUCTURE_STRING: O=C(/C=C/c1cc(Cl)ccc1Cl)Nc1ncc(Cc2ccc(Cl)cc2)s1
growth [%]: -5.33
--
STRUCTURE_STRING: CC(C)(C)Nc1nc2c(OCCc3ccccc3)cccn2c1-c1cccc(Oc2ccccc2)c1
growth [%]: 7.94
--
STRUCTURE_STRING: O=C(/C=C/c1ccc(F)cc1)Nc1cccc2cccnc12
growth [%]: 102

---

tested on: SK-OV-3 ovarian; test: NCI-60 one-dose screen, 48 h (100 = growth as untreated, 0 = no growth, -100 = all killed); conditions: 10 µM unless noted
This is part of a sample that, as a whole, favours compounds with a hit. Of some 83,000 tested, about 20% had one in any assay.
Entries and their growth values follow.
ASSAY_METRIC: growth (%)

MOLECULE: NC(=O)c1c(NC(=O)c2ccc(C(F)(F)F)cc2)sc2c1CCC(=O)C2
VALUE_OBSERVED: 37.5

MOLECULE: O=C(CSc1cc[n+](CCCCO)c2ccccc12)n1ccc2ccccc21
VALUE_OBSERVED: 91

MOLECULE: CCOC(=O)c1c(NCC(=O)Nc2cccc([N+](=O)[O-])c2)sc(C(C)=O)c1C
VALUE_OBSERVED: -13.4

MOLECULE: CC[C@]12C=CCN3CC[C@]4(C(=C(C(=O)OC)C1)Nc1cc5c(cc14)[C@@H]1[C@H](O5)[C@@H](O)[C@@]4(CC)CC(C(=O)OC)=C5Nc6cc(O)ccc6[C@@]56CCN1C46)C32 (stereo not given in full)
VALUE_OBSERVED: 24.1

MOLECULE: COc1ccc(-c2c3c(cn2Cc2cccc(OC)c2)-c2oncc2CCC3)cc1
VALUE_OBSERVED: 98.3

MOLECULE: COc1cc(OC)cc(-c2cc(-c3c[nH]c4ccccc34)nc(-c3c[nH]c4ccccc34)c2C#N)c1
VALUE_OBSERVED: 99.9

MOLECULE: C=C1CCc2nc(SCC(=O)O)ccc2N1
VALUE_OBSERVED: 98.8

MOLECULE: COc1ccc(NC2=C(Br)C(=O)C(C)=C(C)C2=O)cc1OC
VALUE_OBSERVED: 83.8

MOLECULE: C/C(=C(/C)C1CC1CCNC1CCC(NC(=O)OC(C)(C)C)CC1)c1ccccc1 (stereo not given)
VALUE_OBSERVED: 88.8

MOLECULE: COc1cccc2c1C=CC1(O2)Oc2cccc(OC)c2C=C1C (stereo not given)
VALUE_OBSERVED: 65.5

MOLECULE: CS(=O)(=O)c1ccc(/C(=N/N=C(N)N)c2ccc(Cl)cc2)cc1
VALUE_OBSERVED: 87.2

MOLECULE: CC(Nc1ncnc2ccc(-c3cnc(N)nc3)cc12)c1ccccc1 (stereo not given)
VALUE_OBSERVED: 27.3

MOLECULE: CN1CCN(c2ccc(C(=O)/C=C/c3cc(F)cc(C(F)(F)F)c3)cc2)CC1
VALUE_OBSERVED: 109

MOLECULE: CC1CCN(CC(=O)Nn2c(COc3ccccc3)nc3ccccc3c2=O)CC1
VALUE_OBSERVED: 77

MOLECULE: O=C(CSc1nnc(-c2ccc(Cl)cc2)n1-c1ccccc1)Nc1ccc(Cl)cc1
VALUE_OBSERVED: 75

MOLECULE: CC/C(=C(/c1ccc(Cl)cc1)c1ccc(OCCN)cc1)c1ccccc1
VALUE_OBSERVED: 119

MOLECULE: NC1C2CCC1CN(c1cnc(C(=O)Nc3cc(F)cc4cccnc34)cn1)C2 (stereo not given)
VALUE_OBSERVED: 97.1

MOLECULE: Brc1ccc(-c2cc(-c3ccc4c(c3)OCCO4)n[nH]2)s1
VALUE_OBSERVED: 55.1

MOLECULE: CCC1=Cc2c(OC)cccc2OC12C=Cc1c(OC)cccc1O2 (stereo not given)
VALUE_OBSERVED: 56.5

MOLECULE: O=C(CCCCCCN1CC(=O)N2[C@@H](c3ccccc3Br)c3[nH]c4ccccc4c3C[C@H]2C1=O)NO
VALUE_OBSERVED: 75.5
